system: MIWI (PIWIL1) piRISC loaded with L1MC piRNA (30 nt); assay: pre-steady-state target cleavage rate (min^-1); higher = faster piRNA-guided slicing of the target; conditions: guide: L1MC piRNA 5'p-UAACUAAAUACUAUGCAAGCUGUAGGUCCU; auxiliary factor: 500 nM mouse GTSF1;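 further: 1 nM active piRISC with 0.1 nM target library at 33 °C single turnover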
In all, about 8,200 sequences were measured (“pre-steady-state target cleavage rate”: median about 0.024, highest 2% from about 1.3 on). The entries come from a sample that favours the highest values as a whole.
# key: entry, value: pre-steady-state target cleavage rate
I only need the number, thanks.

Answered cases to consult:
sequence_chain: UCCUGGUACAGCUUGCAUAGUAUUUAGCUA
pre-steady-state target cleavage rate: 0.00692
--
sequence_chain: UGGACGUACAGCUUGCAUAGUAUUAAGUUA
pre-steady-state target cleavage rate: 0.721
--
sequence_chain: UGGACCUACAGCUUGCAUAGUAUUUAGUA
pre-steady-state target cleavage rate: 0.885
--
sequence_chain: UGGACCUACAGCUUGCAUAGUAUUUAGCUUA
pre-steady-state target cleavage rate: 0.316
--
sequence_chain: UCGACCUACAGCUUGCAAUCUAUUUAGAAA
pre-steady-state target cleavage rate: 0.129

So what does the record say about pre-steady-state target cleavage rate for `AGGAUCCUACAGCUUGCAUAGUAUUUAGUUA` ? 1.4

So what does the record say about pre-steady-state target cleavage rate for `UCCACCUACAGCUUGCAUAGAAUUUACAAA` ? 0.308

So what does the record say about pre-steady-state target cleavage rate for `UGGACCUACAGCUUGCAUAGUAUUUAGUAA` ? 1.11

So what does the record say about pre-steady-state target cleavage rate for `UCCUGGUACAGCUUGCAUAGUAUUUAGUCUA` ? 0.0829

So what does the record say about pre-steady-state target cleavage rate for `UGGACCUACAGCUUGCAUAGUAUUUAGUUUA` ? 1.56

So what does the record say about pre-steady-state target cleavage rate for `UCCAUCCUACAGCUUGCAUAGUAUUUAGUUA` ? 0.558

So what does the record say about pre-steady-state target cleavage rate for `UCCUGGUACACGUUGCAUAGUAUUUAGUAA` ? 0.178

So what does the record say about pre-steady-state target cleavage rate for `UGGACCUACAGCUUGCAUAGUAUUUCGUUA` ? 0.411

###

test system: MIWI (PIWIL1) piRISC loaded with L1MC piRNA (30 nt); assay: pre-steady-state target cleavage rate (min^-1); MIWI and MILI are mouse PIWI proteins and EfPiwi is from a freshwater sponge; tags in brackets are library labels; higher = faster piRNA-guided slicing of the target; conditions: guide: L1MC piRNA 5'p-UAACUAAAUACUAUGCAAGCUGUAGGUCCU; auxiliary factor: 500 nM mouse GTSF1;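 further: 1 nM active piRISC with 0.1 nM target library at 33 °C single turnover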
Over roughly 8,200 sequences, “pre-steady-state target cleavage rate” has its median near 0.024; the highest 2% begin near 1.3. The sample holds the highest values, similar sequences and a random draw of the others, so the mix is not that of the screen.
quantity_kind: pre-steady-state target cleavage rate
I only need the number, thanks.

Answered cases to consult:
sequence_chain: UCCUCCUCACAGCUUGCAUAGUAUUUAGUUA
pre-steady-state target cleavage rate: 1.49

sequence_chain: UCCUGGUCACAGCUUGCAUAGUAUUUAGUUA
pre-steady-state target cleavage rate: 0.818

sequence_chain: UCCUGCGUACAGCUUGCAUAGUAUUUAGUUA
pre-steady-state target cleavage rate: 1.33

sequence_chain: UCCUGCCACAGCUUGCAUAGUAUUUAGUUA
pre-steady-state target cleavage rate: 1.2

sequence_chain: UCCUGCACAGCUUGCAUAGUAUUUAGUUA
pre-steady-state target cleavage rate: 1.34

So what does the record say about pre-steady-state target cleavage rate for `UCCUCCUUACAGCUUGCAUAGUAUUUAGUUA` ? 1.3

So what does the record say about pre-steady-state target cleavage rate for UCCUGGUACAGCUUGCAUAGUAUUUAGUUA [g2:g24:cont:t1A] ? 0.82

So what does the record say about pre-steady-state target cleavage rate for `UCCUGCGACAGCUUGCAUAGUAUUUAGUUA` ? 1.19

So what does the record say about pre-steady-state target cleavage rate for `UCCUCCCACAGCUUGCAUAGUAUUUAGUUA` ? 1.15

So what does the record say about pre-steady-state target cleavage rate for `UCCUCUUACAGCUUGCAUAGUAUUUAGUUA` ? 1.62

So what does the record say about pre-steady-state target cleavage rate for `UCCUCACUACAGCUUGCAUAGUAUUUAGUUA` ? 0.676

So what does the record say about pre-steady-state target cleavage rate for `UCCUGUUACAGCUUGCAUAGUAUUUAGUUA` ? 1.28

So what does the record say about pre-steady-state target cleavage rate for `UCCUCCACAGCUUGCAUAGUAUUUAGUUA` ? 0.736

All figures here come from the supplement of paper PMC10338343.
